# Lookup of reported bioavailability keyed by entry
assay: Inhibition of Gastric Acid Secretion in the Conscious Male Rat; format: in vivo, Sprague-Dawley; conditions: in vivo, ratio ED50 iv/ED50 id, read-out: "Bioavailability" measured by the Rough Screening Model, Rat ED50 iv/ED50 id (%)
Entry rule: numbers only, all in %.

query: Report bioavailability for COc1ccnc(C[S+]([O-])c2nc3cc(F)ccc3[nH]2)c1OC (centres unmarked) please.
result: 49

query: GET /values?readout=bioavailability&item= COc1ccnc(C[S+]([O-])c2nc3cc(Cl)ccc3[nH]2)c1OC (centres unmarked)
result: 50

---

assay: Bioavailability in the Male Rat (AUC method); format: in vivo, Sprague-Dawley; details: blood, 4 umol/kg, AUC id vs iv, 4 μmol/kg, read-out: Bioavailability measured by the AUL-method, F %, Rat
Each item that follows carries a reported bioavailability.
Give the value in % but do not write % after it.

COc1ccnc(C[S+]([O-])c2nc3cc(F)ccc3[nH]2)c1OC (centres unmarked) | 47

Alright, here's another compound for you.
query: Given the entry COc1ccnc(C[S+]([O-])c2nc3cc(Cl)ccc3[nH]2)c1OC (centres unmarked) , report its measured bioavailability.
result: 97

These entries and their values trace back to patent US5019584A.
